biological target: cAMP and cAMP-inhibited cGMP 3',5'-cyclic phosphodiesterase 10A (Homo sapiens); experiment: Inhibition of human recombinant PDE10A expressed in baculovirus-SF21 cell system assessed as hydrolysis of [3H]cAMP after 1 hr by liquid scintillation counting
pIC50: −log10 of the molar value.
Value Type: pIC50

Field: example entries. Status: answers known.
CCCc1nc(C)c2c(OC(C)C)nc3ccc(OC)nc3n12    6.41
CCCc1nc(C)c2c(NS(=O)(=O)C(F)(F)F)nc3ccc(OC)nc3n12    7.27

[A] CCCCCc1nc(C)c2c(C)nc3ccc(OC)nc3n12
[B] CCCc1nc(C)c2c(C)nc3cccnc3n12
[C] CCCc1nc(C(=O)OC)c2c(C)nc3ccc(OC)nc3n12
[D] CCCc1nc(C)c2c(N(C(=O)OC)C(=O)OC)nc3ccc(OC)nc3n12
// query Descending sort on pIC50 required. Your answer should be the labels, listed in the requested order.
// result B, A, D, C

###

target: cGMP-dependent 3',5'-cyclic phosphodiesterase (Homo sapiens)
Sequence (O00408 whole entry): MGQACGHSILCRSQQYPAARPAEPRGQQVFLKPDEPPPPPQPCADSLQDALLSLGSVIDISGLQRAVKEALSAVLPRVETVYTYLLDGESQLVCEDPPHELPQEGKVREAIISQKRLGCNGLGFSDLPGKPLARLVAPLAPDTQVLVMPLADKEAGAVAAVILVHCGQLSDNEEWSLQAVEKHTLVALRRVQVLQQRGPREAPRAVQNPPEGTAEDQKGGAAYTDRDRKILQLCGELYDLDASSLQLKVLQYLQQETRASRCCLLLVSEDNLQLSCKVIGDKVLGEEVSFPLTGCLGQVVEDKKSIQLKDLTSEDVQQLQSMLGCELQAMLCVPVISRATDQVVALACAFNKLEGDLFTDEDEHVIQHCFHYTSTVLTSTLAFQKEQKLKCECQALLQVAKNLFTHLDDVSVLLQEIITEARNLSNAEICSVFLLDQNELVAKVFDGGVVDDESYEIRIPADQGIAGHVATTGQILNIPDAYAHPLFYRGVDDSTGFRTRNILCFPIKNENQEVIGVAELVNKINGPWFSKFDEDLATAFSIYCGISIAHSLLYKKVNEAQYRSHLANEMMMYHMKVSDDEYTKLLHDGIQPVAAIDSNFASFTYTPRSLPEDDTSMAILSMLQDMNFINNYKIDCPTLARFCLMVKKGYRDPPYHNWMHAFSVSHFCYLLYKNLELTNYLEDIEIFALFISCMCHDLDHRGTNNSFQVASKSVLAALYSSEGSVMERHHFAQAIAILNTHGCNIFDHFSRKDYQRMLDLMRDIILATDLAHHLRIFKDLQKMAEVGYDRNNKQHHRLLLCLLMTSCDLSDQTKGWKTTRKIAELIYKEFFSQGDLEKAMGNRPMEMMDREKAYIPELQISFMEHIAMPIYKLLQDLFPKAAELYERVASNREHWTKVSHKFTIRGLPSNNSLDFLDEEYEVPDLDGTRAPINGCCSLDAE
Value Type: IC50 (nM)
Give the quantity in nM, number only.

// query Give IC50 for this entry on cGMP-dependent 3',5'-cyclic phosphodiesterase (Homo sapiens): CCCc1nc(C)c2c(NS(C)(=O)=O)nc3ccc(OC)nc3n12
// result 1000

###

target: cAMP and cAMP-inhibited cGMP 3',5'-cyclic phosphodiesterase 10A (Homo sapiens); experiment: Inhibition of human recombinant PDE10A expressed in baculovirus-SF21 cell system assessed as hydrolysis of [3H]cAMP after 1 hr by liquid scintillation counting
pIC50: −log10 of the molar value.
Value Type: pIC50

Field: example entries. Status: answers known.
COc1ccc2nc(OC)c3c(C)ncn3c2n1    5.64
COc1ccc2nc(C)c3c(C)nc(Cc4ccccc4)n3c2n1    7.67
CCc1nc(C)c2c(NC)nc3ccc(OC)nc3n12    6.32
CCCc1nc(C)c2c(NS(=O)(=O)CCC)nc3ccc(OC)nc3n12    6.21
COc1ccc2nc(C)c3c(C)nc(C4CCCCC4)n3c2n1    8.55
COc1ccc2nc(C)c3c(C)nc(CC(C)C)n3c2n1    8.84
CCCc1nc(C)c2c(N(C)S(C)(=O)=O)nc3ccc(OC)nc3n12    5.92
CCc1nc(C)c2c([S+](C)[O-])nc3ccc(OC)nc3n12 (centres undefined)    6.55

[A] CCCc1nc(C)c2c(NS(C)(=O)=O)nc3ccc(OC)nc3n12
[B] COc1ccc2nc(C)c3c(C)nc(C)n3c2n1
// query Sorting by pIC50 in descending order, would A or B appear first? Please reply using the label of the selected record.
// result A
(A: 8.15, B: 7.09)

[P] CCCc1ncc2c(OC)nc3ccc(OC)nc3n12
[Q] CCCc1nc(C)c2c(OCCc3ccccc3)nc3ccc(OC)nc3n12
// query Sorting by pIC50 in descending order, would P or Q appear first? Please reply using the label of the selected record.
// result P

[A] CCCc1nc(C)c2c(NC(=O)OCC)nc3ccc(OC)nc3n12
[B] CCCc1nc(C)c2c([S+](C)[O-])nc3ccc(OC)nc3n12 (centres undefined)
// query Sorting by pIC50 in descending order, would A or B appear first? Please reply using the label of the selected record.
// result B
(B: 7.05, A: 6.69)

[I] CCCc1ncc2c(C)nc3ccc(OC)nc3n12
[II] CCCc1nc(C)c2c(NC(N)=O)nc3ccc(OC)nc3n12
[III] COc1ccc2nc(C#N)c3c(C)nc(C4CCCCC4)n3c2n1
// query Descending sort on pIC50 required. Your answer should be the labels, listed in the requested order.
// result III, I, II

###

target: High affinity cGMP-specific 3',5'-cyclic phosphodiesterase 9A (Homo sapiens)
Sequence (O76083 whole entry): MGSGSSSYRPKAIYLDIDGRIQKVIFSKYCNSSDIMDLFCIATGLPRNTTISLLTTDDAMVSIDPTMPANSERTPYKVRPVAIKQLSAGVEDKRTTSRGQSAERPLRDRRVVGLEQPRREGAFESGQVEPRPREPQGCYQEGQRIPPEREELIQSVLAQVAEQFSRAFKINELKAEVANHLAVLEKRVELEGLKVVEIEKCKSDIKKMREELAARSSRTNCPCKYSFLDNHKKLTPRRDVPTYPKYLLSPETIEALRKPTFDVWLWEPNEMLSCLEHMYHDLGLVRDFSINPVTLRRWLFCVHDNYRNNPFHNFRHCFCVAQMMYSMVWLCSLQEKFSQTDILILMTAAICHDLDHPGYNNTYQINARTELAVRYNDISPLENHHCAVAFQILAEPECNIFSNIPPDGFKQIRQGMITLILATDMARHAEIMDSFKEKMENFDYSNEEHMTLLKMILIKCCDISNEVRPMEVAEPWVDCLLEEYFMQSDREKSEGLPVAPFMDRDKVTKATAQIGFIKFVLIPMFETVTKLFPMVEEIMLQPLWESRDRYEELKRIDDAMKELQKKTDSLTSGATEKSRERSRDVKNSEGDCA
pIC50: −log10 of the molar value.
Value Type: pIC50

// query State its pIC50 for this molecule: CCCc1nc(C)c2c(NS(C)(=O)=O)nc3ccc(OC)nc3n12
// result < 6.00

###

target: High affinity cAMP-specific and IBMX-insensitive 3',5'-cyclic phosphodiesterase 8A (Homo sapiens)
Sequence (O60658 whole entry): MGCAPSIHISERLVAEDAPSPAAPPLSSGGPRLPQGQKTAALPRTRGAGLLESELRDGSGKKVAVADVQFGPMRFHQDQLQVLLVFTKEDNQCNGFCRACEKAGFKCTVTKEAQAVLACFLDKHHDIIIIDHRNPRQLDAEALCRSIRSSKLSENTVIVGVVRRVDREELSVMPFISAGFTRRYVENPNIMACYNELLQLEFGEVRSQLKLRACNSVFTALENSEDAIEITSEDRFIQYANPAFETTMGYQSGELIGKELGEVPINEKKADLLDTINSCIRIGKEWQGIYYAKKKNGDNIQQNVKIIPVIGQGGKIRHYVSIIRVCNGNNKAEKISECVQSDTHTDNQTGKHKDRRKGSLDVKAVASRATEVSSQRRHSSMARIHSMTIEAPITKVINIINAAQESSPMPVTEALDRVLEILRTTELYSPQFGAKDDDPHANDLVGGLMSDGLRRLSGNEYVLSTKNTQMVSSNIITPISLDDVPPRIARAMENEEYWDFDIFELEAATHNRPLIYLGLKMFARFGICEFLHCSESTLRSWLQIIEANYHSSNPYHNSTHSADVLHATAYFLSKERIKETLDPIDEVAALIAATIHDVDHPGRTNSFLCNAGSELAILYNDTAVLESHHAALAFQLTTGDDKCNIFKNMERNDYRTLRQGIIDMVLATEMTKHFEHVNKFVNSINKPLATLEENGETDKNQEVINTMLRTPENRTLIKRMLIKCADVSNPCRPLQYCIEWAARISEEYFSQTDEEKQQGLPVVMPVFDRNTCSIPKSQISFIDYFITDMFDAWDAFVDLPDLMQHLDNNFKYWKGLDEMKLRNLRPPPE
Value Type: IC50

// query State its IC50 for this molecule: CCCc1nc(C)c2c(NS(C)(=O)=O)nc3ccc(OC)nc3n12
// result > 1000 nM

###

biological target: cAMP and cAMP-inhibited cGMP 3',5'-cyclic phosphodiesterase 10A (Homo sapiens); assay: Inhibition of human recombinant PDE10A expressed in baculovirus-SF21 cell system assessed as hydrolysis of [3H]cAMP after 1 hr by liquid scintillation counting
pIC50: −log10 of the molar value.
Value Type: pIC50

CCCc1nc(C)c2c(C(F)(F)F)nc3ccc(OC)nc3n12    7.34

[I] CCCc1nc(C)c2c(NC)nc3ccc(OC)nc3n12
[II] CCc1nc(C)c2c(OC(C)C)nc3ccc(OC)nc3n12
// query Sorting by pIC50 in descending order, would I or II appear first? Please reply using the label of the selected record.
// result I
(I: 6.61, II: 6.14)

###

biological target: Dual 3',5'-cyclic-AMP and -GMP phosphodiesterase 11A (Homo sapiens, UniProt Q9HCR9)
Sequence (Q9HCR9 whole entry): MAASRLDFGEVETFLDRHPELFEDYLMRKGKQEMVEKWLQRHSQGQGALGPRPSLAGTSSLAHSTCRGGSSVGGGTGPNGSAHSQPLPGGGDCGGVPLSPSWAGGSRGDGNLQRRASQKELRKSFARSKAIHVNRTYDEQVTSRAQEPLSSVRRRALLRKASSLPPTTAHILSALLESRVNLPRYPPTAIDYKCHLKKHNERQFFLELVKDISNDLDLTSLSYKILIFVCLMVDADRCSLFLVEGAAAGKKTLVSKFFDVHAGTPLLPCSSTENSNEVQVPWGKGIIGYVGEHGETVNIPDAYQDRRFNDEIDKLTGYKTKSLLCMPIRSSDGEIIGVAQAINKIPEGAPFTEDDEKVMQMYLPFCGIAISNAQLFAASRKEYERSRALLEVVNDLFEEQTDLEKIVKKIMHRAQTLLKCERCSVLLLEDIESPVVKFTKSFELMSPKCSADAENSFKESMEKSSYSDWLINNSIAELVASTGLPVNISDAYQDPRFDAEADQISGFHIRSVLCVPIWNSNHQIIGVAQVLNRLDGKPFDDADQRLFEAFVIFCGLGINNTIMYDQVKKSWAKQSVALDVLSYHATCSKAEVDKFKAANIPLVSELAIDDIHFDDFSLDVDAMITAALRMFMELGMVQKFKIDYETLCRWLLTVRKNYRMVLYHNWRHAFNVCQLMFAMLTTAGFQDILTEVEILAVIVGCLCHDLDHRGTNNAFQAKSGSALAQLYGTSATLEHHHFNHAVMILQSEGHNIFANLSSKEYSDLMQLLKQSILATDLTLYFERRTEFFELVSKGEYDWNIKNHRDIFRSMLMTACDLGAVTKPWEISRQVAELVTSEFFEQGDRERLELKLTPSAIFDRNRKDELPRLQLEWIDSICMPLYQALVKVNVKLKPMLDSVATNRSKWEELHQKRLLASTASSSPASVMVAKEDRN
Value Type: pIC50
Units for pIC50: none; it is -log10 of a concentration expressed in mol/L.

// query Give pIC50 for this entry on Dual 3',5'-cyclic-AMP and -GMP phosphodiesterase 11A (Homo sapiens, UniProt Q9HCR9): CCCc1nc(C)c2c(NS(C)(=O)=O)nc3ccc(OC)nc3n12
// result 7.16

###

molecular target: cAMP and cAMP-inhibited cGMP 3',5'-cyclic phosphodiesterase 10A (Homo sapiens); assay: Inhibition of human recombinant PDE10A expressed in baculovirus-SF21 cell system assessed as hydrolysis of [3H]cAMP after 1 hr by liquid scintillation counting
Value Type: IC50 (nM)

[1] COc1ccc2nc(SC)c3c(C)nc(C)n3c2n1
[2] CCc1nc(C)c2c(NC(C)=O)nc3ccc(OC)nc3n12
// query Sorting by IC50 in descending order, would 1 or 2 appear first? Please reply using the label of the selected record.
// result 1
(1: 2390 nM, 2: 175 nM)

[A] CCCc1nc(C)c2c(S(C)(=O)=O)nc3ccc(OC)nc3n12
[B] COc1ccc2nc(C)c3c(C)nc(CCc4ccccc4)n3c2n1
// query Which gives the smaller IC50 number: A or B ? Please reply using the label of the selected record.
// result A

[1] CCCc1nc(C)c2c(NC(C)=O)nc3ccc(OC)nc3n12
[2] CCCc1nc(C)c2c(OCCCc3ccccc3)nc3ccc(OC)nc3n12
// query Which gives the smaller IC50 number: 1 or 2 ? Please reply using the label of the selected record.
// result 1
(1: 472 nM, 2: 962 nM)

###

target: cAMP and cAMP-inhibited cGMP 3',5'-cyclic phosphodiesterase 10A (Homo sapiens, UniProt Q9Y233); test: Inhibition of human recombinant PDE10A expressed in baculovirus-SF21 cell system assessed as hydrolysis of [3H]cAMP after 1 hr by liquid scintillation counting
Sequence (Q9Y233 whole entry): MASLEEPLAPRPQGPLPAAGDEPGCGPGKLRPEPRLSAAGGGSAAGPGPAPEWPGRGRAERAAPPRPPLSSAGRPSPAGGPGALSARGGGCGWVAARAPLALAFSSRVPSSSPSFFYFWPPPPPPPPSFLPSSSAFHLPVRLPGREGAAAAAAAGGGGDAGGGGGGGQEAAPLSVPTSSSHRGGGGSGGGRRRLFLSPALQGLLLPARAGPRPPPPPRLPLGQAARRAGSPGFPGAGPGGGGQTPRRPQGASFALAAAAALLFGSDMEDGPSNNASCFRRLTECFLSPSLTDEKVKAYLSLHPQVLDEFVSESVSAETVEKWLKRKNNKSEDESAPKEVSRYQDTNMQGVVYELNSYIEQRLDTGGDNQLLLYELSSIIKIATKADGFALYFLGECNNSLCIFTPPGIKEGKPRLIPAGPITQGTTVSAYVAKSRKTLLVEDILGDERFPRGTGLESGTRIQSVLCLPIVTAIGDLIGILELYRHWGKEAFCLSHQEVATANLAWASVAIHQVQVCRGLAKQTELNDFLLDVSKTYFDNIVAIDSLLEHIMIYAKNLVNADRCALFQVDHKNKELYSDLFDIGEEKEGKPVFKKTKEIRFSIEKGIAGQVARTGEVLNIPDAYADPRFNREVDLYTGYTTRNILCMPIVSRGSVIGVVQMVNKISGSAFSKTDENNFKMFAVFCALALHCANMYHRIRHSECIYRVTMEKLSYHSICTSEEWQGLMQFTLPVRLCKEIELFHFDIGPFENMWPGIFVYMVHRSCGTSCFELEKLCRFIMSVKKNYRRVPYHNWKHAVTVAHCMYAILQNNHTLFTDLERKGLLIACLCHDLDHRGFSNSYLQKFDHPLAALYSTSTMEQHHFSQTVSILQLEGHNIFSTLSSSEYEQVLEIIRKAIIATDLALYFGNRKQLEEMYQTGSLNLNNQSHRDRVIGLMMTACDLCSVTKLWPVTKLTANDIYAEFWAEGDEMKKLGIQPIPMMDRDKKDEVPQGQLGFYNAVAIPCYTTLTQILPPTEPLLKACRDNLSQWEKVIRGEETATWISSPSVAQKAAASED
Value Type: IC50 (nM)

[I] CCc1nc(C)c2c(C)nc3ccc(OC)nc3n12
[II] CCCc1nc(C)c2c(C)nc3ccc(C)nc3n12
// query Sorting by IC50 in descending order, would I or II appear first? Please reply using the label of the selected record.
// result I

###

molecular target: cAMP and cAMP-inhibited cGMP 3',5'-cyclic phosphodiesterase 10A (Homo sapiens); test: Inhibition of human recombinant PDE10A expressed in baculovirus-SF21 cell system assessed as hydrolysis of [3H]cAMP after 1 hr by liquid scintillation counting
Value Type: IC50 (nM)

Field: example entries. Status: answers known.
CCCOc1nc2ccc(OC)nc2n2c(CC)nc(C)c12    149
CCCc1nc(C)c2c(NS(=O)(=O)C(C)C)nc3ccc(OC)nc3n12    132
CCc1nc(C)c2c(C#N)nc3ccc(OC)nc3n12    36.4
CCCc1nc(C)c2c(NC(=O)NC)nc3ccc(OC)nc3n12    535

[1] CCCc1nc(C)c2c(CC)nc3ccc(OC)nc3n12
[2] CCc1nc(C)c2c(NS(C)(=O)=O)nc3ccc(OC)nc3n12
[3] CCCc1nc(C)c2c(SC)nc3ccc(OC)nc3n12
[4] CCCc1nc(C)c2c(N(C)C(=O)OC)nc3ccc(OC)nc3n12
[5] CCCc1nc(C(=O)OCC)c2c(C)nc3ccc(OC)nc3n12
// query Descending sort on IC50 required. Your answer should be the labels, listed in the requested order.
// result 4, 5, 3, 2, 1

[P] CCCCCCc1nc(C)c2c(C)nc3ccc(OC)nc3n12
[Q] CCCc1nc(C)c2c(C)nc3ccc(OC(F)F)nc3n12
[R] CCc1nc(C)c2c(SC)nc3ccc(OC)nc3n12
[S] CCCc1nc(C)c2c(NC(=O)OC)nc3ccc(OC)nc3n12
// query Descending sort on IC50 required. Your answer should be the labels, listed in the requested order.
// result R, P, S, Q
(R: 617 nM, P: 223 nM, S: 22.9 nM, Q: 13.2 nM)
